Source of measurements: paper PMC10053440

Consider the following molecules; for each one, report its inhibition at 20 µM.
test system: 786-O (human renal cancer cell); experiment: CCK-8 anti-proliferation assay, 786-O; format: cell-based; conditions: 786-0, at 20 µM, 48 h, mean ± SEM, read-out: Inhibition Rate (%)
Value expressed in %; do not type the unit.

For the molecule C[C@@H](CO)CCC[C@@H](C)[C@H]1CC[C@H]2[C@@H]3CC=C4C[C@@H](O)CC[C@]4(C)[C@H]3CC[C@]12C [compound 11] , what inhibition at 20 µM is on record?
65.9

For the molecule C[C@@H](CO)CCC[C@@H](C)[C@H]1[C@@H](O)C[C@H]2[C@@H]3CC=C4C[C@@H](O)CC[C@]4(C)[C@H]3CC[C@]12C [compound 8] , what inhibition at 20 µM is on record?
69

For the molecule CC(=O)OC[C@H](C)CCC[C@@H](C)[C@H]1CC[C@H]2[C@@H]3C[C@@H](O)[C@@]4(O)C[C@@H](O)CC[C@]4(C)[C@H]3CC[C@]12C [compound 13] , what inhibition at 20 µM is on record?
20.5

For the molecule CC(=O)OC[C@H](C)CCC[C@@H](C)[C@H]1CC[C@H]2[C@@H]3CC(=O)[C@@]4(O)C[C@@H](O)CC[C@]4(C)[C@H]3CC[C@]12C [compound (25R)-5] , what inhibition at 20 µM is on record?
65.3

----------
Consider the following compounds; for each one, report its inhibition at 20 µM.
tested on: K-562 (human myeloid leukemia cell); test: CCK-8 anti-proliferation assay, K-562; type: cell-based; details: Homo sapiens, K562, at 20 µM, 48 h, mean ± SEM, read-out: Inhibition Rate (%)
Remember to follow the number with its unit.

For the compound C[C@@H](CO)CCC[C@@H](C)[C@H]1[C@@H](O)C[C@H]2[C@@H]3CC=C4C[C@@H](O)CC[C@]4(C)[C@H]3CC[C@]12C , what inhibition at 20 µM is on record?
7.2%

For the compound CC(=O)OC[C@H](C)CCC[C@@H](C)[C@H]1CC[C@H]2[C@@H]3CC(=O)[C@@]4(O)C[C@@H](O)CC[C@]4(C)[C@H]3CC[C@]12C [compound (25R)-5] , what inhibition at 20 µM is on record?
17.1%

For the compound CC(=O)OC[C@H](C)CCC[C@@H](C)[C@H]1CC[C@H]2[C@@H]3C[C@@H](O)[C@@]4(O)C[C@@H](O)CC[C@]4(C)[C@H]3CC[C@]12C , what inhibition at 20 µM is on record?
7.8%

For the compound C[C@@H](CO)CCC[C@@H](C)[C@H]1CC[C@H]2[C@@H]3CC=C4C[C@@H](O)CC[C@]4(C)[C@H]3CC[C@]12C , what inhibition at 20 µM is on record?
13.1%

----------
Consider the following molecules; for each one, report its inhibition at 20 µM.
Tested on: DU145 (human prostate carcinoma cell)
Assay: CCK-8 anti-proliferation assay, DU145
Assay type: cell-based
Details: DU-145, at 20 µM, 48 h, mean ± SEM, read-out: Inhibition Rate (%)
Description: One concentration was set for each sample during preliminary screening and three multiple holes were set for each concentration. Eight concentration gradients were set for each sample for IC50 determination and three multiple holes were set for each concentration. […] The absorbance was measured at 450 nm with an enzyme labeling instrument and the original data and results were recorded. […] Doxorubicin was used as a positive control. […]

Write down the reported inhibition at 20 µM of CC(=O)OC[C@H](C)CCC[C@@H](C)[C@H]1CC[C@H]2[C@@H]3CC(=O)[C@@]4(O)C[C@@H](O)CC[C@]4(C)[C@H]3CC[C@]12C [compound (25R)-5] , test system: DU145 (human prostate carcinoma cell).
12.2%

Write down the reported inhibition at 20 µM of CC(=O)OC[C@H](C)CCC[C@@H](C)[C@H]1CC[C@H]2[C@@H]3C[C@@H](O)[C@@]4(O)C[C@@H](O)CC[C@]4(C)[C@H]3CC[C@]12C , test system: DU145 (human prostate carcinoma cell).
-0.4%

Write down the reported inhibition at 20 µM of C[C@@H](CO)CCC[C@@H](C)[C@H]1CC[C@H]2[C@@H]3CC=C4C[C@@H](O)CC[C@]4(C)[C@H]3CC[C@]12C , test system: DU145 (human prostate carcinoma cell).
18.4%

Write down the reported inhibition at 20 µM of C[C@@H](CO)CCC[C@@H](C)[C@H]1[C@@H](O)C[C@H]2[C@@H]3CC=C4C[C@@H](O)CC[C@]4(C)[C@H]3CC[C@]12C , test system: DU145 (human prostate carcinoma cell).
26%
